B1: TPR t1 (parent)
chain: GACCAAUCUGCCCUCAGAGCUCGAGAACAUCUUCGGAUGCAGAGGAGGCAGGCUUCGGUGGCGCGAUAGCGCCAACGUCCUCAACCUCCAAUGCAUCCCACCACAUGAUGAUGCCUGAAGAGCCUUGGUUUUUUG

variants of: B1; test: polymerase ribozyme fitness, log enrichment relative to wild type (log ratio); higher = more active; in vitro selection for triplet polymerase activity
Use polymerase ribozyme fitness (log ratio) to assign classes; range list: 1 = under -4, 2 = from -4 up to -2, 3 = -2 and over

{"variant.identifier": "C53G C80G", "answer.label": 2}
{"variant.identifier": "C4A G60A C102U A118U U132C", "answer.label": 1}
{"variant.identifier": "G23U G60U G65C C99G C123U", "answer.label": 1}
{"variant.identifier": "G10U C82G G117C", "answer.label": 1}
{"variant.identifier": "G47A U54C G77A C82A G110A C123A", "answer.label": 2}
{"variant.identifier": "C12U A18U", "answer.label": 2}
{"variant.identifier": "G58A G69A", "answer.label": 2}
{"variant.identifier": "A27G C88A", "answer.label": 2}
{"variant.identifier": "C15U C88A A91C", "answer.label": 2}
{"variant.identifier": "G60U U87A U126C", "answer.label": 3}
{"variant.identifier": "G19A C56U C115A", "answer.label": 2}
{"variant.identifier": "G25A G45U C88G A90G C99G C115A", "answer.label": 1}
{"variant.identifier": "G10U U129C", "answer.label": 3}
{"variant.identifier": "A2G C11A C56G", "answer.label": 3}
{"variant.identifier": "U7G G110C C124A", "answer.label": 1}
{"variant.identifier": "C72U C88G A90C A91G", "answer.label": 1}
{"variant.identifier": "A43G G107A", "answer.label": 1}
{"variant.identifier": "C22G G57C C89A A95G A111U A121U", "answer.label": 1}
{"variant.identifier": "A41C C56G A74C", "answer.label": 1}
{"variant.identifier": "G57U C79A G93C U112G", "answer.label": 2}
{"variant.identifier": "C4U A5C C12G C62U C89U C123G", "answer.label": 3}
{"variant.identifier": "A18C C62U U87C", "answer.label": 2}
